test system: LXFL 529 NSCLC; assay: NCI tumour cell line growth inhibition, 48 h
Measured TGI, listed per entry for reference.
QUANTITY NAME: TGI

compound=CC(=O)[O-].CC(=O)[O-].CC(=O)[O-].CC(=O)[O-].[Mo+2].[Mo+2] quantity_name=TGI meas_value="> 100 µM"
compound="CC(CC(=O)Nc1ccc(NC(=O)CC(C)N=NC(N)=S)cc1)N=NC(N)=S (stereo not drawn)" quantity_name=TGI meas_value="> 100 µM"
compound=CC(C)c1ccccc1NC(=O)/C(Cl)=C1/Sc2ccccc2NC1=O quantity_name=TGI meas_value="> 100 µM"
compound=Cc1cc(N(CCC#N)CCC#N)ccc1/C=C1N=C(/C=C/c2ccccc2)OC(=O)N\1 quantity_name=TGI meas_value="> 100 µM"
compound="N=S(c1ccccc1)c1ccccc1[N+](=O)[O-] (stereo not drawn)" quantity_name=TGI meas_value="30.9 µM"
compound="CC(=O)O[C@]12CCCCCC1C1(O)C(O)CCC[C@H]12 (stereo partly drawn)" quantity_name=TGI meas_value="> 100 µM"
compound="C#CCC(N)(CO)C(=O)O (stereo not drawn)" quantity_name=TGI meas_value="> 100 µM"
compound="CC1(c2ccccc2)CC(c2ccccc2)=NO1 (stereo not drawn)" quantity_name=TGI meas_value="> 100 µM"
compound=Cc1cc(=O)c2c([nH]1)NS(=O)(=O)NC2=O quantity_name=TGI meas_value="> 100 µM"
compound=CSc1c(C)c(C)nn1-c1ccccc1 quantity_name=TGI meas_value="> 100 µM"
compound="CC(=O)N(C(C)=O)C1=C2c3ccccc3N(S(=O)(=O)c3ccccc3)C2n2c(=O)n(-c3ccccc3)c(=O)n2C1 (stereo not drawn)" quantity_name=TGI meas_value="> 100 µM"
compound=Cc1ccccc1Nc1nc2c(s1)C(=O)c1ccccc1C2=O quantity_name=TGI meas_value="14.8 µM"
compound=Cc1cc2c(Br)cc(Br)c(O)c2nc1C(=O)c1ccccc1 quantity_name=TGI meas_value="80.6 µM"

* * *

test system: NCI-H226 lung; assay: NCI tumour cell line growth inhibition, 48 h
QUANTITY NAME: TGI

compound=Cc1cc(N(CCC#N)CCC#N)ccc1/C=C1N=C(/C=C/c2ccccc2)OC(=O)N\1 quantity_name=TGI meas_value="> 100 µM"
compound=Cc1cc(=O)c2c([nH]1)NS(=O)(=O)NC2=O quantity_name=TGI meas_value="> 100 µM"
compound=COc1cc(NS(C)(=O)=O)ccc1N1Cc2cnc3ccc4[nH]c(C)cc1c4c23 quantity_name=TGI meas_value="> 100 µM"
compound=CNC(SC)=C1C(=O)OC(C)(C)OC1=O quantity_name=TGI meas_value="> 100 µM"
compound=CCOC(=O)C(=O)Nc1ccccc1C(F)(F)F quantity_name=TGI meas_value="> 100 µM"
compound="CCCCCCCCCCCC[n+]1ccccc1 (tested in a mixture with another compound)" quantity_name=TGI meas_value="10.4 µM"
compound=O=c1oc(-c2ccc(O)c(O)c2)cc2cccc(O)c12 quantity_name=TGI meas_value="58.7 µM"
compound=N#C/C(=C\c1cc(Br)c(O)c(Br)c1)c1cccnc1 quantity_name=TGI meas_value="91.4 µM"
compound=O=C1C=C(O)c2[nH]c(=O)ccc2C1=O quantity_name=TGI meas_value="> 100 µM"
compound=C[C@H](Cn1ncnn1)Nc1ncc2cc(Oc3ccc(F)cc3F)c(=O)n(C)c2n1 quantity_name=TGI meas_value="> 25 µM"
compound=CC(=O)NNc1nc(C)c(C(=O)NNC(=O)C(=O)Nc2nc3ccc([N+](=O)[O-])cc3s2)s1 quantity_name=TGI meas_value="> 100 µM"
compound="C=CCC1[C@@H](C(C)(C)C(C(C)=O)C(=O)C(=O)OC)OC(C(C)(C)C)N1C(=O)OC (stereo partly specified)" quantity_name=TGI meas_value="> 100 µM"
compound=CC(=O)[CH-]C(C)=O.[CH2-]C.[CH2-]C.[Tl+3] quantity_name=TGI meas_value="> 100 µM"
compound="C1=CC2=CC=CC3c4nc5ccc6ccccc6c5nc4C(=C1)C23 (stereo unspecified)" quantity_name=TGI meas_value="> 100 µM"
compound=C=C(CN1CCc2ccccc2C1)c1ccc(C(=O)Nc2ccccc2N)cc1 quantity_name=TGI meas_value="9.2 µM"
compound=O=C1C(SCCO)=C(SCCO)C(=O)c2ccccc21 quantity_name=TGI meas_value="3.38 µM"
compound=Cc1cc2[nH]c3[nH]c(=O)[nH]c(=O)c3c2cc1C quantity_name=TGI meas_value="> 100 µM"
compound="CCOc1cc(C2CC(c3ccc(NS(=O)(=O)c4cc([N+](=O)[O-])ccc4C)cc3)=NN2C(=O)c2ccccc2)ccc1O (stereo unspecified)" quantity_name=TGI meas_value="> 100 µM"
compound="CCCNC(=O)CCC(C)[C@H]1CCC2C3C(C[C@H](OC(C)=O)[C@@]21C)[C@@]1(C)CCC2(C[C@H]1C[C@H]3OC(C)=O)OOC1(CCC(C)CC1)OO2 (stereo partly specified)" quantity_name=TGI meas_value="> 100 µM"
compound=O=P(c1ccccc1)(c1ccccc1)N1O[C@@H](c2ccccc2)C=C[C@H]1c1ccccc1 quantity_name=TGI meas_value="29.4 µM"
compound="CCOC1Oc2ccccc2-c2oc(=O)c(Sc3ccc(C)cc3)cc21 (stereo unspecified)" quantity_name=TGI meas_value="> 100 µM"
